# System under test: X4E1a1 (E101S) (Xenopus laevis, UniProt P48597, E101S)
# Construct: made in house; host or cells: E. coli Rosetta2(DE3)
# Sequence (P48597 whole entry E101S): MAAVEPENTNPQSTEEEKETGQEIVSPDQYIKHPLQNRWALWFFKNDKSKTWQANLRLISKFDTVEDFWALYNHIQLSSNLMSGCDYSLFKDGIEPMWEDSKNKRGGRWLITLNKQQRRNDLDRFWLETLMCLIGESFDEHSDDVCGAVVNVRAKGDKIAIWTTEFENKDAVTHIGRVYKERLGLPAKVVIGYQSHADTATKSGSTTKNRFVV
# Procedure summary: fluorescence titration, XeIF4E1a mutant
# Format: binding
# Settings: mutant (E101S) of XeIF4E1a
Readout label: Kas X4E1a1 (µM⁻¹)

smiles=Cn1c[n+]([C@@H]2O[C@H](COP(=O)(O)OP(=O)([O-])OP(=O)(O)OC[C@H]3O[C@@H](n4cnc5c(=O)[nH]c(N)nc54)[C@H](O)[C@@H]3O)[C@@H](O)[C@H]2O)c2nc(N)[nH]c(=O)c21 display_unit=µM⁻¹ reported_result=3.38
smiles=Cn1c[n+]([C@@H]2O[C@H](COP(=O)(O)OP(=O)([O-])O)[C@@H](O)[C@H]2O)c2nc(N)[nH]c(=O)c21 display_unit=µM⁻¹ reported_result=10.1
smiles=Cn1c[n+]([C@@H]2O[C@H](COP(=O)(O)OP(=O)(O)OP(=O)(O)OP(=O)(O)O)[C@@H](O)[C@H]2O)c2nc(N)[nH]c(=O)c21 display_unit=µM⁻¹ reported_result=218
smiles=CN(C)c1nc2c(c(=O)[nH]1)[n+](C)cn2[C@@H]1O[C@H](COP(=O)(O)OP(=O)(O)OP(=O)(O)O)[C@@H](O)[C@H]1O display_unit=µM⁻¹ reported_result=0.350
smiles=Cn1c[n+]([C@@H]2O[C@H](COP(=O)(O)OP(=O)(O)OP(=O)(O)OP(=O)(O)OP(=O)(O)O)[C@@H](O)[C@H]2O)c2nc(N)[nH]c(=O)c21 display_unit=µM⁻¹ reported_result=279

* * *

# System under test: X4E1a3 (E101S/K102R/S195A) (Xenopus laevis, UniProt P48597, E101S/K102R/S195A)
# Construct: made in house; host or cells: E. coli Rosetta2(DE3)
# Sequence (P48597 whole entry E101S/K102R/S195A): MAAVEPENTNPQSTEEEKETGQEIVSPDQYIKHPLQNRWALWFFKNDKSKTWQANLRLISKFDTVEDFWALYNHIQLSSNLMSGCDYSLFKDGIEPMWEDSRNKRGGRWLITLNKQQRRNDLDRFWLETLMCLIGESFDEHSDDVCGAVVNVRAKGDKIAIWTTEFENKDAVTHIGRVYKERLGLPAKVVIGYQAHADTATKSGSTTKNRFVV
# Procedure summary: fluorescence titration, XeIF4E1a mutant
# Assay type: binding
# Settings: mutant (E101S/K102R/S195A) of XeIF4E1a
// assign fulfilled if Kas X4E1a3 falls strictly below 2 µM⁻¹, else not fulfilled (ties count as not fulfilled)

smiles=Cn1c[n+]([C@@H]2O[C@H](COP(=O)([O-])OP(=O)(O)OP(=O)(O)O)[C@@H](O)[C@H]2O)c2nc(N)[nH]c(=O)c21 system_under_test="X4E1a3 (E101S/K102R/S195A) (Xenopus laevis, UniProt P48597, E101S/K102R/S195A)" group="not fulfilled"
smiles=Cn1c[n+]([C@@H]2O[C@H](COP(=O)(O)OP(=O)(O)OP(=O)(O)OP(=O)(O)O)[C@@H](O)[C@H]2O)c2nc(N)[nH]c(=O)c21 system_under_test="X4E1a3 (E101S/K102R/S195A) (Xenopus laevis, UniProt P48597, E101S/K102R/S195A)" group="not fulfilled"
smiles=Cn1c[n+]([C@@H]2O[C@H](COP(=O)(O)OP(=O)([O-])O)[C@@H](O)[C@H]2O)c2nc(N)[nH]c(=O)c21 system_under_test="X4E1a3 (E101S/K102R/S195A) (Xenopus laevis, UniProt P48597, E101S/K102R/S195A)" group="not fulfilled"
smiles=Nc1nc2c(c(=O)[nH]1)n(Cc1ccccc1)c[n+]2[C@@H]1O[C@H](COP(=O)(O)OP(=O)(O)O)[C@@H](O)[C@H]1O system_under_test="X4E1a3 (E101S/K102R/S195A) (Xenopus laevis, UniProt P48597, E101S/K102R/S195A)" group="not fulfilled"
smiles=Cn1c[n+]([C@@H]2O[C@H](COP(=O)(O)OP(=O)([O-])OP(=O)(O)OC[C@H]3O[C@@H](n4cnc5c(=O)[nH]c(N)nc54)[C@H](O)[C@@H]3O)[C@@H](O)[C@H]2O)c2nc(N)[nH]c(=O)c21 system_under_test="X4E1a3 (E101S/K102R/S195A) (Xenopus laevis, UniProt P48597, E101S/K102R/S195A)" group="not fulfilled"
smiles=Cn1c[n+]([C@@H]2O[C@H](COP(=O)(O)OP(=O)(O)OP(=O)(O)OC[C@H]3O[C@@H](n4cnc5c(N)ncnc54)[C@H](O)[C@@H]3O)[C@@H](O)[C@H]2O)c2nc(N)[nH]c(=O)c21 system_under_test="X4E1a3 (E101S/K102R/S195A) (Xenopus laevis, UniProt P48597, E101S/K102R/S195A)" group=fulfilled
smiles=CCn1c[n+]([C@@H]2O[C@H](COP(=O)(O)OP(=O)(O)OP(=O)(O)O)[C@@H](O)[C@H]2O)c2nc(N)[nH]c(=O)c21 system_under_test="X4E1a3 (E101S/K102R/S195A) (Xenopus laevis, UniProt P48597, E101S/K102R/S195A)" group="not fulfilled"
smiles=CN(C)c1nc2c(c(=O)[nH]1)[n+](C)cn2[C@@H]1O[C@H](COP(=O)(O)OP(=O)(O)OP(=O)(O)O)[C@@H](O)[C@H]1O system_under_test="X4E1a3 (E101S/K102R/S195A) (Xenopus laevis, UniProt P48597, E101S/K102R/S195A)" group=fulfilled

* * *

# System under test: heIF4E1a (Homo sapiens, UniProt P06730)
# Construct: made in house; host or cells: E. coli Rosetta2(DE3)
# Sequence (P06730 whole entry): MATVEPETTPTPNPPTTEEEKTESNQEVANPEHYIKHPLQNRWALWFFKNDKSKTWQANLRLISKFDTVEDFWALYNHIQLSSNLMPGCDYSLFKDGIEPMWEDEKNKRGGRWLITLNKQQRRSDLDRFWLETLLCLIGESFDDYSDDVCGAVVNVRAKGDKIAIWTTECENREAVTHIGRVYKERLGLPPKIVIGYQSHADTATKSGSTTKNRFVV
# Procedure summary: time-synchronized fluorescence titration of cap analogue binding
# Settings: change relative to m^7GTP; without glycerol
Readout label: ΔΔG^o − glycerol heIF4E1a (kcal/mol)

smiles=CCn1c[n+]([C@@H]2O[C@H](COP(=O)(O)OP(=O)(O)OP(=O)(O)O)[C@@H](O)[C@H]2O)c2nc(N)[nH]c(=O)c21 readout_label="ΔΔG^o − glycerol heIF4E1a" reported_result=0.965
smiles=Cn1c[n+]([C@@H]2O[C@H](COP(=O)(O)OP(=O)([O-])OP(=O)(O)OC[C@H]3O[C@@H](n4cnc5c(=O)[nH]c(N)nc54)[C@H](O)[C@@H]3O)[C@@H](O)[C@H]2O)c2nc(N)[nH]c(=O)c21 readout_label="ΔΔG^o − glycerol heIF4E1a" reported_result=1.423
smiles=CN(C)c1nc2c(c(=O)[nH]1)[n+](C)cn2[C@@H]1O[C@H](COP(=O)(O)OP(=O)(O)OP(=O)(O)O)[C@@H](O)[C@H]1O readout_label="ΔΔG^o − glycerol heIF4E1a" reported_result=3.052
smiles=Cn1c[n+]([C@@H]2O[C@H](COP(=O)(O)OP(=O)(O)OP(=O)(O)OC[C@H]3O[C@@H](n4cnc5c(N)ncnc54)[C@H](O)[C@@H]3O)[C@@H](O)[C@H]2O)c2nc(N)[nH]c(=O)c21 readout_label="ΔΔG^o − glycerol heIF4E1a" reported_result=1.658

* * *

# System under test: X4E1a4 (E101S/K102R/S195A/M82S) (Xenopus laevis, UniProt P48597, E101S/K102R/M82S/S195A)
# Construct: made in house; host or cells: E. coli Rosetta2(DE3)
# Sequence (P48597 whole entry M82S/E101S/K102R/S195A): as the sequence (P48597 whole entry E101S) above, with M82S, K102R, S195A counted along it
# Procedure summary: fluorescence titration, XeIF4E1a mutant
# Type: binding
# Settings: mutant (E101S/K102R/S195A/M82S) of XeIF4E1a
Readout label: Kas X4E1a4 (µM⁻¹)

compound="Cn1c[n+]([C@@H]2O[C@H](COP(=O)(O)OP(=O)([O-])OP(=O)(O)OC[C@H]3O[C@@H](n4cnc5c(=O)[nH]c(N)nc54)[C@H](O)[C@@H]3O)[C@@H](O)[C@H]2O)c2nc(N)[nH]c(=O)c21 [m^7GpppG]" system_under_test="X4E1a4 (E101S/K102R/S195A/M82S) (Xenopus laevis, UniProt P48597, E101S/K102R/M82S/S195A)" readout_label="Kas X4E1a4" reported_result=2.87
compound="Cn1c[n+]([C@@H]2O[C@H](COP(=O)(O)OP(=O)(O)OP(=O)(O)OP(=O)(O)O)[C@@H](O)[C@H]2O)c2nc(N)[nH]c(=O)c21 [m^7Gp4]" system_under_test="X4E1a4 (E101S/K102R/S195A/M82S) (Xenopus laevis, UniProt P48597, E101S/K102R/M82S/S195A)" readout_label="Kas X4E1a4" reported_result=206
compound="Nc1nc2c(c(=O)[nH]1)n(Cc1ccccc1)c[n+]2[C@@H]1O[C@H](COP(=O)(O)OP(=O)(O)O)[C@@H](O)[C@H]1O [bn^7GDP]" system_under_test="X4E1a4 (E101S/K102R/S195A/M82S) (Xenopus laevis, UniProt P48597, E101S/K102R/M82S/S195A)" readout_label="Kas X4E1a4" reported_result=11.66
compound="Cn1c[n+]([C@@H]2O[C@H](COP(=O)(O)OP(=O)(O)OP(=O)(O)OC[C@H]3O[C@@H](n4cnc5c(N)ncnc54)[C@H](O)[C@@H]3O)[C@@H](O)[C@H]2O)c2nc(N)[nH]c(=O)c21 [m^7GpppA]" system_under_test="X4E1a4 (E101S/K102R/S195A/M82S) (Xenopus laevis, UniProt P48597, E101S/K102R/M82S/S195A)" readout_label="Kas X4E1a4" reported_result=1.48
compound="CN(C)c1nc2c(c(=O)[nH]1)[n+](C)cn2[C@@H]1O[C@H](COP(=O)(O)OP(=O)(O)OP(=O)(O)O)[C@@H](O)[C@H]1O [m^2,2,7GTP]" system_under_test="X4E1a4 (E101S/K102R/S195A/M82S) (Xenopus laevis, UniProt P48597, E101S/K102R/M82S/S195A)" readout_label="Kas X4E1a4" reported_result=0.317
